Attribution: patent US20250281611A1

Test target: T1, nfP2X7 CAR 1
T1 construct: Expressed on T cells with truncated EGFR as marker gene; also called anti-nfP2X7 receptor CAR 1; nfP2X7 targeted CAR on EGFR+ T cells
Protocol: flow cytometry, CAR T cells, anti-His-FITC, EGFR+ MFI over background 0.4
Entry flag: 1 if HisTag MFI Ratio (background 0.4) reaches 3; 0 if it does not.

binder="CD33 BRIDGE variant B3 (Fab, V domains shown, Lintuzumab-based Fab bridging molecule) VH: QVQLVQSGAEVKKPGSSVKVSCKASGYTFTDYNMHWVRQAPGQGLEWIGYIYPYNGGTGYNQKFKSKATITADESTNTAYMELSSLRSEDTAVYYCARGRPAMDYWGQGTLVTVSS VL: DIQMTQSPSSLSASVGDRVTITCRASESVDNYGISFMNWFQQKPGKAPKLLIYAASNQGSGVPSRFSGSGSGTDFTLTISSLQPDDFATYYCQQSKEVPWTFGQGTKVEIKR" class_label=0
binder="CD33 BRIDGE variant B20 (Fab, V domains shown, Lintuzumab-based Fab bridging molecule) VH: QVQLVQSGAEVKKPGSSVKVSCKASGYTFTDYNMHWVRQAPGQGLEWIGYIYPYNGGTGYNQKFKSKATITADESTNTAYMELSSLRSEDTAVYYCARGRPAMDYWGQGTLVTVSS VL: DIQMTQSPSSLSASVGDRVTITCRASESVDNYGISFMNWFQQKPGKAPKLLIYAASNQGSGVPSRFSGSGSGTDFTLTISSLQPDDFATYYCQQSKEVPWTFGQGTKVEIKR" class_label=1
binder="CD33 BRIDGE variant B14 (Fab, V domains shown, Lintuzumab-based Fab bridging molecule) VH: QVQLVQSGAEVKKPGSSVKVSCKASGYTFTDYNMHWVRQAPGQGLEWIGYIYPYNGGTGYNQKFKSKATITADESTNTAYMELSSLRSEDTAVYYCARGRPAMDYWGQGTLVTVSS VL: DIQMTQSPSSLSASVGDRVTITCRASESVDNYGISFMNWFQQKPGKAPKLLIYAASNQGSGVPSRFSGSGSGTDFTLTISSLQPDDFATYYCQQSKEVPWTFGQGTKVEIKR" class_label=1
binder="CD33 BRIDGE variant B1 (Fab, V domains shown, Lintuzumab-based Fab bridging molecule) VH: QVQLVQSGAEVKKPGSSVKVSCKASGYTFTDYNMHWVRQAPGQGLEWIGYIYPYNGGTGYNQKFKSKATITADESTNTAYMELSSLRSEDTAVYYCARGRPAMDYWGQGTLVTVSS VL: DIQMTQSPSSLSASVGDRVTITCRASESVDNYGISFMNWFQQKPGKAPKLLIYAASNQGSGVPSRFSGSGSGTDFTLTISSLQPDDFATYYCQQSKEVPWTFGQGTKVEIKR" class_label=0

Now examine the next entry.
Qu. Is the recorded value of HisTag MFI Ratio (background 0.4) equal to or greater than 3 for this binder? CD33 BRIDGE variant B13 (Fab, V domains shown, Lintuzumab-based Fab bridging molecule) VH: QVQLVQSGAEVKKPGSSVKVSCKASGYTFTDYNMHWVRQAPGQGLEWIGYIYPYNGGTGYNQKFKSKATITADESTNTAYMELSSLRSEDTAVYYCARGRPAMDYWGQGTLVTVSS VL: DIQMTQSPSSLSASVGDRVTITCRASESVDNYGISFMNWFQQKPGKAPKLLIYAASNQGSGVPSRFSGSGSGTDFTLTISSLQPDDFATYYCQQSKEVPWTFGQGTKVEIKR
Ans. 1
